The reported numbers originate from ChEMBL document CHEMBL5724914.

# PROTOCOL_DETAILS: The drug is tested on Z-011 corresponding to mouse gut metagenome with ENA study accession number: PRJEB37062 and ENA sample accession number: ERS12561811 for biotransformation under anaerobic condition. The drug concentrations were measured over 9 timepoints collected between 0 and 24 hours of incubation by liquid-chromatography-coupled mass spectrometry (LC–MS); also: call rule not given here
# TEST_CONDITIONS: 2 µM
QUANTITY_NAME: Bacterial Biotransformation

Reference set, count: 5
C#C[C@]1(OC(C)=O)CC[C@H]2[C@@H]3CCC4=C/C(=N/O)CC[C@@H]4[C@H]3CC[C@@]21CC [NORGESTIMATE]	Compound NOT metabolized
COc1cc2nc(N3CCN(C(=O)C4COc5ccccc5O4)CC3)nc(N)c2cc1OC.CS(=O)(=O)O (configuration not stated) [DOXAZOSIN MESYLATE]	Compound NOT metabolized
CC(=O)O[C@H]1C(=O)[C@@]2(C)[C@H]([C@H](OC(=O)c3ccccc3)[C@]3(O)C[C@H](OC(=O)[C@H](O)[C@@H](NC(=O)c4ccccc4)c4ccccc4)C(C)=C1C3(C)C)[C@]1(OC(C)=O)CO[C@@H]1C[C@@H]2O [PACLITAXEL]	Compound metabolized
OC(c1cc(C(F)(F)F)nc2c(C(F)(F)F)cccc12)C1CCCCN1 (configuration not stated) [MEFLOQUINE]	Compound metabolized
CCN(CC)CCNC(=O)c1cc(S(C)(=O)=O)ccc1OC [TIAPRIDE]	Compound metabolized

Lab note: CCN(C)C(=O)Oc1cccc([C@H](C)N(C)C)c1.O=C(O)C(O)C(O)C(=O)O [RIVASTIGMINE TARTRATE] gave Bacterial Biotransformation of Compound NOT metabolized

// Bacterial Biotransformation lookup, compound = COc1ccc(/C=C/C(=O)Nc2ccccc2C(=O)O)cc1OC , result: Compound NOT metabolized
